Recorded Activity for the following molecules
Method Summary: Antioxidant activity assessed as superoxide radical scavenging activity at 50 ug/ml after 10 min by NBT reduction assay
Format: functional
A number alone suffices; assume %.

Recorded results for 5 molecules are shown here.
[
  {
    "Item Smiles": "CSc1ccc(/C=C/C(=O)c2ccc(Br)cc2)cc1",
    "Experimental Result": 18
  },
  {
    "Item Smiles": "O=C1O[C@H]([C@@H](O)CO)C(O)=C1O",
    "Experimental Result": 82.9
  },
  {
    "Item Smiles": "CSc1ccc(/C=C/C(=O)c2ccc(O)cc2)cc1",
    "Experimental Result": 52.6
  },
  {
    "Item Smiles": "COc1ccccc1/C=C/C(=O)c1ccc([N+](=O)[O-])cc1",
    "Experimental Result": 34.5
  },
  {
    "Item Smiles": "COc1ccccc1/C=C/C(=O)c1ccccc1",
    "Experimental Result": 18.6
  }
]

Now for another entry.
Name the reported Activity value associated with the molecule CN(C)c1ccc(/C=C/C(=O)c2ccc(Cl)cc2Cl)cc1 10.9

###

Method Summary: Antioxidant activity assessed as superoxide radical scavenging activity at 50 ug/ml after 10 min by NBT reduction assay
Type: functional
Classify by measured Activity: yes (1) if it is equal to or exceeds 40%, no (0) if it is smaller.

These recorded examples may help you get a feel for the data.
[
  {
    "Item Smiles": "CSc1ccc(/C=C/C(=O)c2cccc(O)c2)cc1",
    "Class Name": "yes (1)"
  },
  {
    "Item Smiles": "CSc1ccc(/C=C/C(=O)c2ccc(C)cc2)cc1",
    "Class Name": "no (0)"
  },
  {
    "Item Smiles": "Cc1cc(C(C)(C)C)c(O)c(C(C)(C)C)c1",
    "Class Name": "yes (1)"
  },
  {
    "Item Smiles": "O=C(/C=C/c1ccccc1)c1ccccc1",
    "Class Name": "no (0)"
  },
  {
    "Item Smiles": "COc1ccc(/C=C/C(=O)c2cccc([N+](=O)[O-])c2)c(OC)c1",
    "Class Name": "no (0)"
  },
  {
    "Item Smiles": "COc1ccccc1/C=C/C(=O)c1cccc([N+](=O)[O-])c1",
    "Class Name": "no (0)"
  },
  {
    "Item Smiles": "CSc1ccc(/C=C/C(=O)c2ccccc2O)cc1",
    "Class Name": "yes (1)"
  },
  {
    "Item Smiles": "CSc1ccc(/C=C/C(=O)c2ccc(Cl)cc2)cc1",
    "Class Name": "yes (1)"
  }
]

# next compound below
Could you tell me if the measured Activity of CSc1ccc(/C=C/C(=O)c2ccc(Cl)cc2Cl)cc1 reaches 40% or more? no (0)

###

Method Summary: Antioxidant activity assessed as hydrogen peroxide radical scavenging activity at 50 ug/ml after 10 min by spectrophotometry
Type: functional
Recorded Activity for the following compounds
A number alone suffices; assume %.

Recorded results for 6 compounds are shown here.
[
  {
    "Item Smiles": "CSc1ccc(/C=C/C(=O)c2cccc([N+](=O)[O-])c2)cc1",
    "Activity, %": 46.4
  },
  {
    "Item Smiles": "COc1ccc(/C=C/C(=O)c2ccccc2)cc1",
    "Activity, %": 12.3
  },
  {
    "Item Smiles": "CSc1ccc(/C=C/C(=O)c2ccccc2)cc1",
    "Activity, %": 4.26
  },
  {
    "Item Smiles": "COc1ccc(C(=O)/C=C/c2ccc(SC)cc2)cc1",
    "Activity, %": 29.5
  },
  {
    "Item Smiles": "CSc1ccc(/C=C/C(=O)c2ccc([N+](=O)[O-])cc2)cc1",
    "Activity, %": 4.61
  },
  {
    "Item Smiles": "CSc1ccc(/C=C/C(=O)c2ccc(O)cc2)cc1",
    "Activity, %": 23.8
  }
]

Name the reported Activity value associated with the compound CSc1ccc(/C=C/C(=O)c2ccc(Br)cc2)cc1 49.7

Name the reported Activity value associated with the compound COc1ccc(/C=C/C(=O)c2ccc(C)cc2)cc1 4.54

Name the reported Activity value associated with the compound COc1ccccc1/C=C/C(=O)c1ccc([N+](=O)[O-])cc1 61.3

Name the reported Activity value associated with the compound CN(C)c1ccc(/C=C/C(=O)c2cccc([N+](=O)[O-])c2)cc1 17.4

Name the reported Activity value associated with the compound COc1ccc(/C=C/C(=O)c2cccc([N+](=O)[O-])c2)cc1OC 35.9

Name the reported Activity value associated with the compound O=C(/C=C/c1ccccc1)c1ccccc1 25.4

Name the reported Activity value associated with the compound CSc1ccc(/C=C/C(=O)c2cccc(O)c2)cc1 28.7

Name the reported Activity value associated with the compound COc1ccc(/C=C/C(=O)c2ccc(Cl)cc2Cl)cc1OC 23.8

###

Method Summary: Antioxidant activity assessed as superoxide radical scavenging activity at 50 ug/ml after 10 min by NBT reduction assay
Assay type: functional
Classify by measured Activity: 1.0 if it is equal to or exceeds 30%, 0.0 if it is smaller.

These recorded examples may help you get a feel for the data.
[
  {
    "Item Smiles": "COc1cc(/C=C/C(=O)c2ccccc2)cc(OC)c1OC",
    "Class Name": 0.0
  },
  {
    "Item Smiles": "CN(C)c1ccc(/C=C/C(=O)c2ccccc2)cc1",
    "Class Name": 0.0
  },
  {
    "Item Smiles": "CN(C)c1ccc(/C=C/C(=O)c2cccc([N+](=O)[O-])c2)cc1",
    "Class Name": 1.0
  }
]

Could you tell me if the measured Activity of COc1ccc(/C=C/C(=O)c2cccc(O)c2)cc1 reaches 30% or more? 1.0

Could you tell me if the measured Activity of COc1ccc(/C=C/C(=O)c2cccc([N+](=O)[O-])c2)cc1OC reaches 30% or more? 1.0

Could you tell me if the measured Activity of COc1ccc(/C=C/C(=O)c2ccccc2)cc1 reaches 30% or more? 0.0

Could you tell me if the measured Activity of CSc1ccc(/C=C/C(=O)c2ccc([N+](=O)[O-])cc2)cc1 reaches 30% or more? 0.0

Could you tell me if the measured Activity of COc1ccc(C(=O)/C=C/c2ccc(SC)cc2)cc1 reaches 30% or more? 0.0

Could you tell me if the measured Activity of CSc1ccc(/C=C/C(=O)c2ccccc2)cc1 reaches 30% or more? 0.0

Could you tell me if the measured Activity of CSc1ccc(/C=C/C(=O)c2cccc([N+](=O)[O-])c2)cc1 reaches 30% or more? 1.0

Could you tell me if the measured Activity of COc1ccc(/C=C/C(=O)c2ccc(Cl)cc2Cl)cc1OC reaches 30% or more? 1.0

Could you tell me if the measured Activity of COc1ccc(/C=C/C(=O)c2ccc(C)cc2)cc1 reaches 30% or more? 0.0

###

Recorded Activity for the following compounds
Method Summary: Antioxidant activity assessed as hydrogen peroxide radical scavenging activity at 50 ug/ml after 10 min by spectrophotometry
Assay type: functional
A number alone suffices; assume %.

Recorded results for 3 compounds are shown here.
[
  {
    "Item Smiles": "O=C1O[C@H]([C@@H](O)CO)C(O)=C1O",
    "Activity, %": 78.3
  },
  {
    "Item Smiles": "COc1ccc(/C=C/C(=O)c2cccc([N+](=O)[O-])c2)c(OC)c1",
    "Activity, %": 5.91
  },
  {
    "Item Smiles": "CSc1ccc(/C=C/C(=O)c2ccc(Cl)cc2Cl)cc1",
    "Activity, %": 17.4
  }
]

Name the reported Activity value associated with the compound COc1ccccc1/C=C/C(=O)c1ccccc1 4.54

Name the reported Activity value associated with the compound COc1cc(/C=C/C(=O)c2ccccc2)cc(OC)c1OC 22.7

Name the reported Activity value associated with the compound CSc1ccc(/C=C/C(=O)c2ccc(C)cc2)cc1 31.7

###

Method Summary: Antioxidant activity assessed as hydrogen peroxide radical scavenging activity at 50 ug/ml after 10 min by spectrophotometry
Type: functional
Assay Endpoint: Activity (%)
A number alone suffices; assume %.

Recorded results for 5 molecules are shown here.
[
  {
    "Item Smiles": "COc1ccccc1/C=C/C(=O)c1cccc([N+](=O)[O-])c1",
    "Activity / %": 24.3
  },
  {
    "Item Smiles": "CSc1ccc(/C=C/C(=O)c2ccc(Cl)cc2)cc1",
    "Activity / %": 43.5
  },
  {
    "Item Smiles": "CN(C)c1ccc(/C=C/C(=O)c2ccc(Cl)cc2Cl)cc1",
    "Activity / %": 32.6
  },
  {
    "Item Smiles": "Cc1cc(C(C)(C)C)c(O)c(C(C)(C)C)c1",
    "Activity / %": 42.6
  },
  {
    "Item Smiles": "CSc1ccc(/C=C/C(=O)c2ccccc2O)cc1",
    "Activity / %": 33.3
  }
]

Name the reported Activity value associated with the molecule CN(C)c1ccc(/C=C/C(=O)c2ccccc2)cc1 12.1

Name the reported Activity value associated with the molecule COc1ccc(/C=C/C(=O)c2cccc(O)c2)cc1 42.8
